# Tgt: acyl-CoA: cholesterol acyltransferase (ACAT) (Oryctolagus cuniculus)
# Sequence (G1SFD9 1-524): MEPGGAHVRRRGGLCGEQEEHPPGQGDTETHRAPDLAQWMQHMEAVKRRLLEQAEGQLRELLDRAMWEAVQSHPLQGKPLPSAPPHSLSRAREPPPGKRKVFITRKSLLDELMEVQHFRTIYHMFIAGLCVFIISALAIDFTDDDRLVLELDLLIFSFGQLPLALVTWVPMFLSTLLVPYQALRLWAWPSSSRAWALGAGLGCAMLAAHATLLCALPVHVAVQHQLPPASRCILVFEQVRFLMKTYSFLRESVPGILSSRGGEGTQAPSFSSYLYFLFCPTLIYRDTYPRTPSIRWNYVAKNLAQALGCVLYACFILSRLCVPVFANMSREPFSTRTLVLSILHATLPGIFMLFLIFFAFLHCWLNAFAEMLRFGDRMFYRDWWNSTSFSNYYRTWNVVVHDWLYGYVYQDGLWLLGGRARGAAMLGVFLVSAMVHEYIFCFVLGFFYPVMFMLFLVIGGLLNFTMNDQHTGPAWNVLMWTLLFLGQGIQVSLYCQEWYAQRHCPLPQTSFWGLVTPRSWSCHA
Observed property: pIC50
Give bare numbers, as −log10 of the molar value.

1) COc1ccc(C(=O)NC2(CNC(=O)Nc3c(C(C)C)cccc3C(C)C)CCCC2)cc1 [Example 5]    6.29

Checklist item: pIC50 tested on acyl-CoA: cholesterol acyltransferase (ACAT) (Oryctolagus cuniculus), entry CCCC(CCC)(CNC(=O)Nc1c(C(C)C)cccc1C(C)C)NC(=O)c1ccc(OC)cc1 [Example 4] , value?
7.02

The values you see were collected from patent US5106873A.
